- System: NQO1 specific enzyme activity in BEAS-2B cells
- assay.notes: BEAS-2B NQO1 MTT assay
- Assay type: cell-based
- condition.parameters: Homo sapiens, BEAS-2B, 48 h, BEAS-2B cells, 48 hours with compound, MTT readout; read-out: EC50 of NQO1 specific activity induction
pEC50: −log10 of the molar value. Where a name gives a salt, the structure may show the parent alone.
readout.type: pEC50

Here are 3 compounds together with their reported answers.
{"compound": "CCC1CN(Cc2cc([C@@H](CC(=O)O)c3ccc4c(nnn4C)c3C)ccc2C)Cc2ccccc2O1 (stereo partly shown) [Example 6, Trifluoroacetic Acid Salt]", "test.target": "NQO1 specific enzyme activity in BEAS-2B cells", "pEC50": "6.00 to 7.00"}
{"compound": "Cc1ccc(C(CC(=O)O)c2ccc3c(nnn3C)c2C)cc1Cn1nc(CC2CCCCC2)nc1C (stereo not shown) [Example 137]", "test.target": "NQO1 specific enzyme activity in BEAS-2B cells", "pEC50": "6.00 to 7.00"}
{"compound": "CCc1ncc2c(n1)CN(Cc1cc(C(CC(=O)O)c3ccc4c(nnn4C)c3C)ccc1C)CC2 (stereo not shown) [Example 13]", "test.target": "NQO1 specific enzyme activity in BEAS-2B cells", "pEC50": "5.00 to 6.00"}

Now take the following compound into account.
Recorded pEC50 (compound CC[C@@H]1CN(Cc2cc(C(CC(=O)O)c3ccc4c(nnn4C)c3C)ccc2C)Cc2cnccc2O1 (stereo partly shown) [Example 86] ): 6.00 to 7.00

====

Recorded pEC50 by entry
- Tested on: NQO1 specific enzyme activity in BEAS-2B cells
- assay.notes: BEAS-2B NQO1 MTT assay
- Type: cell-based
- condition.parameters: Homo sapiens, BEAS-2B, 48 h, BEAS-2B cells, 48 hours with compound, MTT readout; read-out: EC50 of NQO1 specific activity induction
- Source text: NAD(P)H:quinone oxidoreductase 1 (NQO1), also called DT diaphorase, is a homodimeric FAD-containing enzyme that catalyzes obligatory NAD(P)H-dependent two-electron reductions of quinones and protects cells against the toxic and neoplastic effects of free radicals and reactive oxygen species arising from one-electron reductions. […] On day one, frozen BEAS-2B cells (ATCC) are thawed in a water bath, counted, and re-suspended at a concentration of 250,000 cells/mL. […]
pEC50: −log10 of the molar value. Where a name gives a salt, the structure may show the parent alone.

Field: example entries. Status: answers known.
{"compound": "Cc1ccc(C(c2ccc3c(nnn3C)c2C)C(C)(C)C(=O)O)cc1Cn1ccnc1CN1CCC(C)CC1 (stereo not shown) [Example 139]", "measured": "5.00 to 6.00"}
{"compound": "Cc1ccc(C(CC(=O)O)c2ccc3c(nnn3C)c2C)cc1CN1Cc2ccccc2O[C@H](C)C1 (stereo partly shown) [Example 94, Formic Acid Salt]", "measured": "8.00 to 9.00"}
{"compound": "CCn1nnc2c(F)c([C@H](CC(=O)O)c3ccc(C)c(CN4Cc5ccccc5OC(C)(C)C4)c3)ccc21 [Example 65, Hydrochloride]", "measured": "7.00 to 8.00"}
{"compound": "Cc1ccc(C(CC(=O)O)c2ccc3c(nnn3C)c2C)cc1CN(C)Cc1cccc(Br)c1 (stereo not shown) [Example 17]", "measured": "5.00 to 6.00"}
{"compound": "CCn1nnc2c(C)c([C@H](c3ccc(C)c(CN4Cc5ccccc5OC(C)(C)C4)c3)[C@@H](C)C(=O)O)ccc21 [Example 208, Trifluoroacetic Acid Salt]", "measured": "8.00 to 9.00"}

Please look at the following compound next.
// sample CC[C@@H]1CN(Cc2cc([C@H](c3ccc4c(nnn4CC)c3C)[C@H](C)C(=O)O)ccc2C)Cc2cnccc2O1 [Example 197, Sodium salt] , its pEC50 was 7.00 to 8.00

====

# EC50 values compiled below
- Test system: NQO1 specific enzyme activity in BEAS-2B cells
- assay.notes: BEAS-2B NQO1 MTT assay
- Format: cell-based
- condition.parameters: Homo sapiens, BEAS-2B, 48 h, BEAS-2B cells, 48 hours with compound, MTT readout; read-out: EC50 of NQO1 specific activity induction
Where a name gives a salt, the structure may show the parent alone.

{"molecule": "CC[C@@H]1CN(Cc2cc([C@H](CC(=O)O)c3ccc4c(nnn4C)c3C)ccc2C)Cc2cccc(F)c2O1 [Example 58, Sodium salt]", "EC50": "10 to 100 nM"}
{"molecule": "Cc1ccc(C(CC(=O)O)c2ccc3c(nnn3C)c2C)cc1CN1Cc2cc(C#N)ccc2OC(C)(C)C1 (single isomer, unassigned) [Example 171]", "EC50": "10 to 100 nM"}
{"molecule": "CCn1cc(CCC(CC(=O)O)c2ccc(Cl)c(CN3Cc4cccnc4OC(C)(C)C3)c2)nn1 (stereo not shown) [Example 233]", "EC50": "1000 to 10000 nM"}

Please turn your attention to the following entry.
// assay NQO1 specific enzyme activity in BEAS-2B cells, entry Cc1ccc(C(CC(=O)O)c2ccc3c(nnn3C)c2C)cc1Cn1ccnc1CC1CCCCCC1 (stereo not shown) [Example 146, formic acid salt] , EC50 value = 10 to 100 nM

====

- Tested on: NQO1 specific enzyme activity in BEAS-2B cells
- assay.notes: BEAS-2B NQO1 MTT assay
- Format: cell-based
- condition.parameters: Homo sapiens, BEAS-2B, 48 h, BEAS-2B cells, 48 hours with compound, MTT readout; read-out: EC50 of NQO1 specific activity induction
- Description: NAD(P)H:quinone oxidoreductase 1 (NQO1), also called DT diaphorase, is a homodimeric FAD-containing enzyme that catalyzes obligatory NAD(P)H-dependent two-electron reductions of quinones and protects cells against the toxic and neoplastic effects of free radicals and reactive oxygen species arising from one-electron reductions. […] On day one, frozen BEAS-2B cells (ATCC) are thawed in a water bath, counted, and re-suspended at a concentration of 250,000 cells/mL. […]
pEC50: −log10 of the molar value. Where a name gives a salt, the structure may show the parent alone.
readout.type: pEC50

Use the examples below as a reference point.
{"compound": "Cc1ccc(C(CC(=O)NS(C)(=O)=O)c2ccc3c(nnn3C)c2C)cc1CN1Cc2ccccc2OC(C)(C)C1 (stereo not shown) [Example 187]", "pEC50": "6.00 to 7.00"}
{"compound": "CC[C@@H]1CN(Cc2cc(C(CCc3cn(CC)nn3)C(C)(C)C(=O)O)ccc2C)Cc2cccnc2O1 (stereo partly shown) [Example 217]", "pEC50": "7.00 to 8.00"}
{"compound": "CC[C@@H]1CN(Cc2cc(C(CC(=O)O)c3ccc4c(nnn4C)c3C)ccc2C)Cc2cccc(C)c2O1 (stereo partly shown) [Example 76]", "pEC50": "6.00 to 7.00"}

So for CC[C@@H]1CN(Cc2cc([C@@H](c3ccc4c(nnn4C)c3C)C(C)(C)C(=O)O)ccc2C)Cc2ccncc2O1 [Example 219, Trifluoroacetate] , the logged pEC50 turned out to be 8.00 to 9.00

====

- Tested on: NQO1 specific enzyme activity in BEAS-2B cells
- assay.notes: BEAS-2B NQO1 MTT assay
- Assay type: cell-based
- condition.parameters: Homo sapiens, BEAS-2B, 48 h, BEAS-2B cells, 48 hours with compound, MTT readout; read-out: EC50 of NQO1 specific activity induction
Where a name gives a salt, the structure may show the parent alone.
readout.type: EC50

{"compound": "CC[C@@H]1CN(Cc2cc(C(CC(=O)O)c3ncc4c(nnn4C)c3C)ccc2C)Cc2ccccc2O1 (stereo partly drawn) [Example 48, Trifluoroacetic Acid Salt]", "EC50": "100 to 1000 nM"}
{"compound": "CC[C@@H]1CN(Cc2cc([C@H](CC(=O)O)c3ccc4c(nnn4CC)c3C)ccc2C)Cc2ccccc2O1 [Example 68, Formic Acid Salt]", "EC50": "10 to 100 nM"}
{"compound": "CCC1CN(Cc2cc(C(CC(=O)O)c3ccc4c(nnn4C)c3C)ccc2C)Cc2ccccc2O1 (stereo not drawn) [Example 2, Trifluoroacetic Acid Salt]", "EC50": "100 to 1000 nM"}
{"compound": "CC[C@@H]1CN(Cc2cc([C@H](CC(=O)O)c3ccc4c(nnn4CC)c3F)ccc2C)Cc2cnccc2O1 [Example 53]", "EC50": "100 to 1000 nM"}

Just so you know, measured EC50 for Cc1ccc(C(CC(=O)O)c2ccc3c(nnn3C)c2C)cc1Cn1ccnc1CC1CCCCC1 (stereo not drawn) [Example 127] came out at 10 to 100 nM

Recorded result, CC[C@@H]1CN(Cc2cc(C(CC(=O)O)c3ccc4c(nnn4C)c3C)ccc2C)Cc2cc(F)ccc2O1 (stereo partly drawn) [Example 78, formic acid salt] , EC50: 1000 to 10000 nM

Per the records, this compound ( CCC1(C)CN(Cc2cc([C@@H](c3ccc4c(nnn4C)c3C)C(C)(C)C(=O)O)ccc2C)Cc2ccccc2O1 (stereo partly drawn) [Example 240] ) has EC50 equal to 1 to 10 nM

// EC50 lookup, compound = CCC1CN(Cc2cc([C@H](CC(=O)O)c3ccc4c(nnn4C)c3C)ccc2C)Cc2ccccc2O1 (stereo partly drawn) [Example 5, Trifluoroacetic Acid Salt] , result: 10 to 100 nM
